- assayed_target: NOVA2(3) (Homo sapiens, UniProt Q9UNW9)
- Sequence: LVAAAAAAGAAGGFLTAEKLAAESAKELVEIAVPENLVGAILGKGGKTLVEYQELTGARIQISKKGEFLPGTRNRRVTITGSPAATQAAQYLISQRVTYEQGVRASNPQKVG
- method: protein domain microarray probed with biotinylated miRNA; Domain array: 20 mM Tris-HCl pH 7.4, 200 mM KCl, 0.2 mM EDTA, 0.05% NP40, 2 ug/ul heparin, overnight 4 C. ORF array: PBS pH 7.0 with RNase inhibitor, 100 ng RNA; high values mean tight binding
- cond: ssRNA
Property: binding signal; scope: individual sequences
Numbers only; they are read as fluorescence intensity.

Here's what some known entries look like.
Exercise: What value of measured binding signal is listed for `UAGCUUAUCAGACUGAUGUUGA` ?
Key: 63.2

Exercise: Look up binding signal for this sequence: `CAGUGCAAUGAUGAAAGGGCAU`
Key: 508

Exercise: Entry under review: `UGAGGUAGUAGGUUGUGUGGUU` . Reported binding signal?
Key: 271

Proceed to the following item.
Exercise: Looking for the measured binding signal of `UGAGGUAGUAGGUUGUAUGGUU` , can you help?
Key: 144
